Recorded melting point by entry

[
  {
    "compound": "COc1ccc(OC)c2c1C(=O)OC2=O",
    "melting point": "265 to 268 °C"
  }
]

Query string: Reported melting point for O=c1cc(Cl)nc2sc(SCc3ccccc3)nn12 : what is it?
Result string: 138 to 140 °C

Query string: # query: melting point of entry Nc1ccc([N+](=O)[O-])cc1S(=O)(=O)CCO
Result string: 175 °C

Query string: For CCOCc1nc2c(N)nc3cccnc3c2n1Cc1cc(-c2ccc(F)cc2)no1 , what is its reported melting point?
Result string: 190 to 191 °C

Query string: Would you mind telling me what melting point value was observed for N#Cc1ccc(-c2cncc(OC3SCC(O)C(O)C3O)c2)cc1F (stereo not given) ?
Result string: 214 °C

Query string: Query (compound): Cc1oc(-c2ccccc2)nc1COc1cc(COc2nn(C)cc2CC(=O)O)ccn1 ; field requested: melting point
Result string: 126 to 127 °C

Query string: Which melting point reading was recorded for the compound COC(=O)c1sc2c(c1O)CCCC2 ?
Result string: 55 to 58 °C

Query string: Requested read-out: melting point. Entry: NCCC(O)c1ccccc1 (stereo not given)
Result string: 92 to 94 °C

Query string: Any idea what its melting point is? The compound is CC(=O)n1c(=O)oc2c3ncccc3ccc21
Result string: 192 to 193 °C

* * *

Recorded melting point for the following compounds

[
  {
    "compound": "CC(C)c1nc(C(C)C)c(CCc2ccccc2)c(-c2ccc(F)cc2)c1CO",
    "value_observed": "158 to 159 °C"
  },
  {
    "compound": "NS(=O)(=O)c1cc2cnccc2o1",
    "value_observed": "216 to 218 °C"
  },
  {
    "compound": "OC(CCN1CC=C(c2ccc(Cl)cc2)CC1)c1cccc2ccccc12 (stereo not given)",
    "value_observed": "122 to 123 °C"
  },
  {
    "compound": "Cc1ccc2c(c1C)OCC2c1ccc(C(C)C)cc1 (stereo not given)",
    "value_observed": "50 to 51 °C"
  },
  {
    "compound": "COc1ccc(CC2SC(=O)NC2=O)c2c1N(Cc1ccc(C(=O)Nc3ccc(C(C)C)cc3)cc1)C(=O)CC2 (stereo not given)",
    "value_observed": "243 to 244 °C"
  }
]

Query string: Query: melting point; subject: O=C1COc2ccc(CO)cc2N1
Result string: 186 to 187 °C

Query string: Which melting point value is on record for O=C(Nc1c(Cl)cccc1Cl)N(Cc1ccccc1)CC1(c2ccccc2)CCCC1 ?
Result string: 125 to 127 °C

Query string: # melting point lookup, item CCOC(=O)CNc1ncccc1NC(=O)c1ccc(OC)cc1
Result string: 130 to 131 °C

Query string: Any idea what melting point was measured for N#CC1=C(C#N)Sc2nc3cc(C#N)ccc3nc2S1 ?
Result string: 218 to 220 °C

Query string: If you can, please state the reported melting point value of O=S1(=O)NC(C23CC4CC(CC(C4)C2)C3)Nc2c(Br)cc(Br)cc21 (stereo not given) .
Result string: 270 to 273 °C

* * *

melting point listing for selected molecules.

[
  {
    "molecule": "CON(C)S(=O)(=O)NC(=O)Nc1nc(C)cc(C)n1",
    "melting point": "152 °C"
  },
  {
    "molecule": "Cc1cc(C)c(S(=O)(=O)N(C)c2ccccc2CSc2nccn2-c2ccccn2)c(C)c1",
    "melting point": "131 to 133 °C"
  },
  {
    "molecule": "CC(C)c1ccc(C(=O)C2CCc3ccccc3C2)c(C(C)C)c1OS(N)(=O)=O (centres undefined)",
    "melting point": "137 to 139 °C"
  },
  {
    "molecule": "Cc1c(OC(F)F)ccnc1CSc1nc2ccc(O)cc2[nH]1",
    "melting point": "214 to 215 °C"
  },
  {
    "molecule": "Cc1ccc(CC(CS)C(=O)Nc2cccc(C(=O)O)c2C)cc1 (centres undefined)",
    "melting point": "194 to 196 °C"
  },
  {
    "molecule": "CC(=O)N=NCc1ccc(OCCCCCOc2ccc(C(=O)N(c3ccccc3)C(C)C)c(Cl)c2)cc1",
    "melting point": "58 to 60 °C"
  }
]

Query string: For the molecule shown here, CCCCCCC(C)(C)c1cc(OC)c(C2=C[C@@H]3CC[C@@]2(C)C3(C)C)c(OC)c1 , give the reported melting point.
Result string: 35 to 37 °C

Query string: Would you kindly share the measured melting point for COC(=O)c1cn2c(NCCCCCCNS(=O)(=O)c3ccccc3[N+](=O)[O-])nsc2n1 ?
Result string: 148 to 149 °C

Query string: Need melting point, item O=S(=O)(Cc1ccccc1)c1c[nH]c2ccccc12
Result string: 153 to 155 °C

Query string: What value of measured melting point is listed for Cc1nc(CCc2nc3ccc(F)cc3c(=O)n2-c2cccnc2C)cs1 ?
Result string: 151 to 153 °C

Query string: Which melting point value is on record for CN1Cc2c(C(=O)OC3CCCCC3)ncn2-c2cccc(Cl)c2C1=O ?
Result string: 208 to 209 °C

Query string: // returns reported melting point for input O=C(NCO)c1cncc([N+](=O)[O-])c1
Result string: 145 to 146 °C

Query string: Item Cc1ccc(C(=O)Nc2ccc3ccc(Cl)nc3n2)s1 has what recorded melting point?
Result string: 220 °C

Query string: Look up melting point: CN(C)n1nnc2cc3c(cc2c1=O)OC1CCCN1C3=O (centres undefined)
Result string: 180 °C

Query string: Dear colleague, I am looking for the recorded melting point of the following molecule: Oc1cc(OCCCCCCCCCCOc2ccc(C(=S)c3ccc(-c4ccccc4)cc3)c(O)c2)ccc1C(=S)c1ccc(-c2ccccc2)cc1
Result string: 125 to 127 °C

Query string: // query melting point value for entry C#CCN(C(=O)c1ccccc1C(F)(F)F)S(=O)(=O)c1cccc(C)c1
Result string: 81 to 85 °C

Query string: melting point lookup needed for CN(C)CCNS(=O)(=O)c1cc(NC(=O)c2cnn3c(C(F)(F)F)cc(-c4ccc(C(F)(F)F)cc4)nc23)c(Cl)s1 , thanks.
Result string: 198 °C

Query string: Need melting point of CC1(C)OC(=O)C(OC2CCc3ccccc32)=C1c1ccc(S(C)(=O)=O)cc1 (centres undefined) , thanks.
Result string: 128 to 129 °C

Query string: Which value of melting point has been reported for CCCc1nc2c(N)nc3cc(OCC(=O)N4CCOCC4)ccc3c2s1 in the records?
Result string: 200 to 203 °C

* * *

Each item that follows carries a reported melting point.

Previously resolved entries follow.
[
  {
    "compound": "COc1ccc(-n2nc(C(C)(C)C)cc2NC(=O)c2cccc3cc(Oc4cc(Cl)ncn4)ccc23)cc1",
    "value_observed": "163 to 164 °C"
  },
  {
    "compound": "NC(=O)c1ccc(-c2nn(-c3ccc(C(=O)O)cc3)c3ccc([N+](=O)[O-])cc23)cc1",
    "value_observed": "320 to 322 °C"
  },
  {
    "compound": "CC1=Nc2ccccc2CC(c2cccs2)N1C (centres undefined)",
    "value_observed": "106 to 108 °C"
  },
  {
    "compound": "O=C(O)Cc1ccc(-n2cc(Cl)cn2)cc1",
    "value_observed": "176 to 178 °C"
  },
  {
    "compound": "O=C1NC(=S)SC1=Cc1ccc(OCc2ccccc2-c2ccccc2C(=O)O)cc1",
    "value_observed": "> 225 °C"
  },
  {
    "compound": "COC(=O)c1cc2cc(OC)c(OC)cc2c(-c2ccnc(-n3c(=O)ccc4ccccc43)c2)c1C(=O)OC",
    "value_observed": "> 230 °C"
  },
  {
    "compound": "CCN(CC)c1ccc(-n2c(C(F)(F)F)nn(C)c2=S)cn1",
    "value_observed": "96 to 98 °C"
  },
  {
    "compound": "C=CCNC(=O)N=C(O)c1cc(C(=O)O)ccc1C(=O)O",
    "value_observed": "230 to 232 °C"
  }
]

Query compound follows.
Query string: Which melting point value belongs to O=C1c2ccccc2C(=O)N1Oc1ccc(-c2nc(=O)c3ccccc3s2)cn1 ?
Result string: 212 to 213 °C

* * *

Reported melting point values follow for various compounds

A selection of reference data follows.
[
  {
    "compound": "O=C(O)C(=NOCc1ccc(F)cc1)c1csc(NC(=O)C(F)(F)F)n1",
    "melting point": "180 to 182 °C"
  },
  {
    "compound": "COc1ccc2c(c1)CCC1C2CCC2(C)C(NC(c3ccccc3)c3ccccc3)CCC12 (stereo not given)",
    "melting point": "127 to 129 °C"
  },
  {
    "compound": "O=S1NC(Cc2ccc3c(Cl)cccc3c2)=NO1 (stereo not given)",
    "melting point": "164 to 165 °C"
  },
  {
    "compound": "CCCC/C=C\\CCCCOc1cccc(C(N)=O)c1",
    "melting point": "98 to 100 °C"
  },
  {
    "compound": "COC(=O)C1=C(C)NC(=O)N(C(C)=O)C1c1ccccc1 (stereo not given)",
    "melting point": "156 to 159 °C"
  }
]

Query string: Endpoint output: melting point of Cn1cc(C(=O)O)c(=O)c2cc3cc(F)c(N4CCNC(c5cccc(F)c5)C4)cc3nc21 (racemic) . Value?
Result string: 254 °C

Query string: Dear colleague, I am looking for the recorded melting point of the following compound: COC(=O)c1nn(C2CCCCO2)cc1NC(=O)c1ccccc1 (stereo not given)
Result string: 124 to 125 °C

Query string: Query (compound): CCn1c(=O)n(-c2ccc(-n3ccn4c5ccccc5nc34)cc2)c2ncccc21 ; field requested: melting point
Result string: 220 to 221 °C

Query string: For Cc1cc(Nc2c(C#N)cnc3cc(-c4csc(C5OCCO5)c4)ccc23)ccc1OCc1ccccn1 , what is its reported melting point?
Result string: 194 to 196 °C

Query string: Can you share its melting point? I mean this compound: CC(=O)Oc1ccccc1C(=O)Nc1cccc(F)c1
Result string: 88.5 to 89.7 °C

Query string: What does the record list as melting point for O=C1Nc2ccccc2CN1C1CCN(Cc2ccccc2)CC1 ?
Result string: 204 to 206 °C

Query string: What does the data say about its melting point? Entry: COc1cc2c(Nc3ccc(Cl)cc3F)ncnc2cc1OCCSc1ccncc1
Result string: 182 to 186 °C

Query string: For the compound shown here, CCOc1cn(C)cc(-c2cccc(C(F)(F)F)c2)c1=S , give the reported melting point.
Result string: 153 to 155 °C

Query string: What value of melting point has been recorded for this entry: CNc1cc(-n2cc(C(=O)O)c(=O)c3cc(F)c(F)c(C)c32)c(F)cc1F
Result string: 238 °C

Query string: Give the measured melting point of O=C(c1ccccc1)N1CCC(COc2ccccc2)CC1 .
Result string: 95 to 96 °C

Query string: Any idea what melting point was measured for CNc1nc(-c2ccccc2)c(-c2nc3ccccc3c(=O)n2-c2ccccc2Cl)s1 ?
Result string: 215 to 217 °C

Query string: Bench note: what melting point did CC(Oc1ccc(Br)cc1)(C(=O)O)c1ccccc1 (stereo not given) show?
Result string: 88 to 89 °C

Query string: Dear colleague, I am looking for the recorded melting point of the following compound: O=C(Nc1ccc(Cl)nc1)N1CCc2ccccc2CC1
Result string: 170 to 172 °C

Query string: // melting point lookup, key: CC1(C)CC(OC(=O)CCC(=O)OC2CC(C)(C)N(OC3CCCCC3)C(C)(C)C2)CC(C)(C)N1OC1CCCCC1
Result string: 122 to 126 °C

Query string: Query: melting point; subject: CN(C)S(=O)(=O)c1ccc2c(c1)S(=O)(=O)NC1CCCN21 (stereo not given)
Result string: 240 to 243 °C
